Please go through the items and note down their kinase still bound, per cent of control.
assayed_target: MUSK (human)
procedure_summary: KINOMEscan competition binding
condition_set: compound 10.0 µM
Kindly answer with a numeric value in %, unit omitted.

The reported MUSK (human) kinase still bound, per cent of control of `O=c1cc(N2CCOCC2)oc2c(-c3cccc4c3sc3ccccc34)cccc12` is 100

Form: item `C=CC(=O)Nc1ccc(CN(C(=O)Nc2c(Cl)c(OC)cc(OC)c2Cl)c2cc(Nc3ccc(N4CCN(C)CC4)cc3)ncn2)cc1` ; test system MUSK (human); kinase still bound, per cent of control: 6.2

Form field, kinase still bound, per cent of control with MUSK (human), item `COCC(=O)NC/C=C/c1ccc2ncnc(Nc3ccc(Oc4ccc(C)nc4)c(C)c3)c2c1` : 100

Measured on MUSK (human), `CCN(CC)CCCCNc1ncc2c(n1)N(C)C(=O)N(c1c(Cl)c(OC)cc(OC)c1Cl)C2` has a documented kinase still bound, per cent of control of 100

Readout kinase still bound, per cent of control for `C=CC(=O)Nc1cc(-n2c(=O)ccc3cnc4ccc(-c5cn[nH]c5)cc4c32)ccc1C` , test system MUSK (human), was 93

Measured on MUSK (human), `CCN(CC)CCCCNc1ncc2cc(-c3cc(OC)cc(OC)c3)c(NC(=O)NC(C)(C)C)nc2n1` has a documented kinase still bound, per cent of control of 100

Lab note: compound `CCN1CCN(C(=O)Cc2ccc(Nc3ncc(F)c(Nc4ccc(C(=O)Nc5ccccc5Cl)cc4)n3)cc2)CC1` tested on MUSK (human); recorded kinase still bound, per cent of control was 11

kinase still bound, per cent of control on MUSK (human) for `O=C1NC(=O)/C(=C/c2ccc3nccc(-c4ccncc4)c3c2)S1` is 92

kinase still bound, per cent of control on MUSK (human) for `CNC(=O)c1cc(Oc2ccc(NC(=O)Nc3ccc(Cl)c(C(F)(F)F)c3)cc2)ccn1` is 0.1

###

assayed_target: CLK4 (human)
procedure_summary: KINOMEscan competition binding
condition_set: compound 10.0 µM
value_kind: kinase still bound, per cent of control (%)
State the answer as a number, implicitly in %.

// kinase still bound, per cent of control lookup, compound = `COc1ccc(N(C(=O)Oc2c(C)cccc2C)c2ccnc(Nc3ccc(N4CCN(C)CC4)cc3)n2)c(OC)c1` , result: 100

The value of kinase still bound, per cent of control measured for the compound `COc1cc2ncnc(-n3nc(-c4ccccn4)nc3N)c2cc1OC` turned out to be 2.2

kinase still bound, per cent of control measured on `C[C@@H](Oc1cc(-c2cnn(C3CCNCC3)c2)cnc1N)c1c(Cl)ccc(F)c1Cl` = 100

kinase still bound, per cent of control measured on `CNC(=O)c1ccc(Nc2cc(Nc3ccccc3S(=O)(=O)C(C)C)c3cc[nH]c3n2)nc1` = 0.35

Given item `COc1cc(N2CCN(C)CC2)ccc1Nc1ncc2c(n1)N(C)c1ccccc1C(=O)N2C` , the value recorded as its kinase still bound, per cent of control is 100

###

assayed_target: ULK1 (human) (UniProt O75385)
Sequence (O75385 whole entry, looked up): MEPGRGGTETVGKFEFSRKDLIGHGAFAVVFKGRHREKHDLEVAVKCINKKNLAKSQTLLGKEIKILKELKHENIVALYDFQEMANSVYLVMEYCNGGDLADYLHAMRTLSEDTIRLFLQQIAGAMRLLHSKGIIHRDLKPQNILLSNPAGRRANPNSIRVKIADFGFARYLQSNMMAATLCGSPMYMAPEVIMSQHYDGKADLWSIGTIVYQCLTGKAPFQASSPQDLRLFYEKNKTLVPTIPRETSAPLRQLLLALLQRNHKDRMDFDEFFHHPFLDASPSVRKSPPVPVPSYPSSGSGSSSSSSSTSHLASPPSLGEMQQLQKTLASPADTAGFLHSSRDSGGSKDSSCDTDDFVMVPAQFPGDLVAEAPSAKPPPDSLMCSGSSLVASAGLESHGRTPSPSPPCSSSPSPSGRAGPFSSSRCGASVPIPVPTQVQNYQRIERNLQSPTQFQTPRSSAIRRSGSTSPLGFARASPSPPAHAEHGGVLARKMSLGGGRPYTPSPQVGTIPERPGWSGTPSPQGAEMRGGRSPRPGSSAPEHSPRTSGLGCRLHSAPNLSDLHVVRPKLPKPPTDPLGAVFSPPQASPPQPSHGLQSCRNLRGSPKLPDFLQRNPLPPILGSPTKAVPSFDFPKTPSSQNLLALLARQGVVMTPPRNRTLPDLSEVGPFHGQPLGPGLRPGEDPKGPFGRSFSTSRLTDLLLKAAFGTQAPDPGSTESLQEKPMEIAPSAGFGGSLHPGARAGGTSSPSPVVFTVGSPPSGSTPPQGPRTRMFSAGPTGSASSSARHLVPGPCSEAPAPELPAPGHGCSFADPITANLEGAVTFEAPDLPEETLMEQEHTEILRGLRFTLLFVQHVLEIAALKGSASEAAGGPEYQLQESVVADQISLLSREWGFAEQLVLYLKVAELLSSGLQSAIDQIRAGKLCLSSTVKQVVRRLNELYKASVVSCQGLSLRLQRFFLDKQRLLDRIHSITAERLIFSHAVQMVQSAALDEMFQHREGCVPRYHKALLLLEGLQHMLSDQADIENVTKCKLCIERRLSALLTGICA
procedure_summary: KINOMEscan competition binding
condition_set: compound 10.0 µM
Kindly state kinase still bound, per cent of control for each of the entries shown.
Only the number, expressed in %, is required.

kinase still bound, per cent of control measured on `COc1cc(C(=O)N2CCC(N3CCN(C)CC3)CC2)ccc1Nc1ncc2c(n1)N(C)c1ccccc1C(=O)N2C` = 80

Lookup result for `COc1cc2ncnc(-n3nc(-c4ccccn4)nc3N)c2cc1OC` ; measured kinase still bound, per cent of control: 6.6

The recorded kinase still bound, per cent of control for entry `COc1cc2ncn(-c3cc(OCc4ccccc4C(F)(F)F)c(C(N)=O)s3)c2cc1OC` equals 92

kinase still bound, per cent of control measured on `CS(=O)(=O)N1CCN(Cc2cc3nc(-c4cccc5[nH]ncc45)nc(N4CCOCC4)c3s2)CC1` = 100

The compound `NC(=O)Nc1cc(-c2cccc(F)c2)sc1C(=O)N[C@@H]1CCCNC1` showed kinase still bound, per cent of control equal to 0

response.value for `CCN1CCN(C(=O)Cc2ccc(Nc3ncc(F)c(Nc4ccc(C(=O)Nc5ccccc5Cl)cc4)n3)cc2)CC1` (field: kinase still bound, per cent of control) = 28

Recorded kinase still bound, per cent of control (compound `COc1ccc(N(C(=O)Oc2c(C)cccc2C)c2ccnc(Nc3ccc(N4CCN(C)CC4)cc3)n2)c(OC)c1` ): 31

In plain terms, `CNC(=O)c1ccc(Nc2cc(Nc3ccccc3S(=O)(=O)C(C)C)c3cc[nH]c3n2)nc1` has a documented kinase still bound, per cent of control of 7.2

Recorded result, `O=C1NC(=O)/C(=C/c2ccc3nccc(-c4ccncc4)c3c2)S1` , kinase still bound, per cent of control: 74
